Just for reference, paper PMC11423328 is where these values come from.

Substrate: CCCCCC(=O)N[C@H]1CCOC1=O
Assay: purified protein
Assay type: biochemical, Parageobacillus caldoxylosilyticus
Conditions: pH 8.3, 25 °C, 2.5 mM bicine, 150 mM NaCl, 0.2 mM CoCl2
Reported Endpoint: kcat (s⁻¹)
One number for each entry, in s⁻¹.

Some solved cases for reference:
Protein: GcL (Parageobacillus caldoxylosilyticus NBRC 107762; I236M) (protein, expressed in E. coli BL21(DE3)-pGro7/GroEL with CoCl2; bimetallic Fe/Co centre; dimer) MANVIKARPKLYVMDNGRMRMDKNWMIAMHNPATIHNPNAQTEFVEFPIYTVLIDHPEGKILFDTSCNPNSMGPQGRWAESTQQMFPWTATEECYLHNRLEQLKVRPEDIRYVVASHLHLDHAGCLEMFTNATIIVHEDEFNGALQCYARNQKEGAYIWADIDAWIKNNLQWRTVKRHEDNILLAEGVKVLNFGSGHAWGMLGLHVELPETGGIILASDAIYTAESYGPPIKPPGMIYDSLGYMNTVERIRRIAQETKSQVWFGHDAEQFKKFRKSTEGYYE
Reported Endpoint: kcat
Units Symbol: s⁻¹
Value Observed: 0.95

Protein: GcL (Parageobacillus caldoxylosilyticus NBRC 107762; D121N) (protein, expressed in E. coli BL21(DE3)-pGro7/GroEL with CoCl2; bimetallic Fe/Co centre; dimer) MANVIKARPKLYVMDNGRMRMDKNWMIAMHNPATIHNPNAQTEFVEFPIYTVLIDHPEGKILFDTSCNPNSMGPQGRWAESTQQMFPWTATEECYLHNRLEQLKVRPEDIRYVVASHLHLNHAGCLEMFTNATIIVHEDEFNGALQCYARNQKEGAYIWADIDAWIKNNLQWRTVKRHEDNILLAEGVKVLNFGSGHAWGMLGLHVELPETGGIILASDAIYTAESYGPPIKPPGIIYDSLGYMNTVERIRRIAQETKSQVWFGHDAEQFKKFRKSTEGYYE
Reported Endpoint: kcat
Units Symbol: s⁻¹
Value Observed: 2.6

Protein: GcL (Parageobacillus caldoxylosilyticus NBRC 107762; G155P) (protein, expressed in E. coli BL21(DE3)-pGro7/GroEL with CoCl2; bimetallic Fe/Co centre; dimer) MANVIKARPKLYVMDNGRMRMDKNWMIAMHNPATIHNPNAQTEFVEFPIYTVLIDHPEGKILFDTSCNPNSMGPQGRWAESTQQMFPWTATEECYLHNRLEQLKVRPEDIRYVVASHLHLDHAGCLEMFTNATIIVHEDEFNGALQCYARNQKEPAYIWADIDAWIKNNLQWRTVKRHEDNILLAEGVKVLNFGSGHAWGMLGLHVELPETGGIILASDAIYTAESYGPPIKPPGIIYDSLGYMNTVERIRRIAQETKSQVWFGHDAEQFKKFRKSTEGYYE
Reported Endpoint: kcat
Units Symbol: s⁻¹
Value Observed: 2.44

Moving on to the next protein.
# kcat of GcL (Parageobacillus caldoxylosilyticus NBRC 107762; Y222F) (protein, expressed in E. coli BL21(DE3)-pGro7/GroEL with CoCl2; bimetallic Fe/Co centre; dimer) MANVIKARPKLYVMDNGRMRMDKNWMIAMHNPATIHNPNAQTEFVEFPIYTVLIDHPEGKILFDTSCNPNSMGPQGRWAESTQQMFPWTATEECYLHNRLEQLKVRPEDIRYVVASHLHLDHAGCLEMFTNATIIVHEDEFNGALQCYARNQKEGAYIWADIDAWIKNNLQWRTVKRHEDNILLAEGVKVLNFGSGHAWGMLGLHVELPETGGIILASDAIFTAESYGPPIKPPGIIYDSLGYMNTVERIRRIAQETKSQVWFGHDAEQFKKFRKSTEGYYE = 5.01
